Where do the numbers come from? From patent US20030144346A1.

Listing: HRED2 % Inhibition @ 100 μM of selected molecules
- system: type 2 human 5α-reductase (HRED2) (Homo sapiens, UniProt P31213)
- Sequence (P31213 1-254): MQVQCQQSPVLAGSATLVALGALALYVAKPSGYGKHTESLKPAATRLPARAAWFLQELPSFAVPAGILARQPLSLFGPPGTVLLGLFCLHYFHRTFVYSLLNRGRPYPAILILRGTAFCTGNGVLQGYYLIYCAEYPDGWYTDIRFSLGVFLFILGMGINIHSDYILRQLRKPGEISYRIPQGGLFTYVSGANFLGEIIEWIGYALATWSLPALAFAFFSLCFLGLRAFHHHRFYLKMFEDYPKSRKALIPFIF
- protocol: Cell free assay of 5α-reductase, microsomes of rat 1A cells expressing type 2 isoenzyme (HRED2);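 also: labeled testosterone and its product dihydrotestosterone measured in microsomal reaction extracts via thin layer chromatography plus radioanalytic scanning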
- Format: biochemical
- Set-up: expressed in transfected cells; host or cells: rat 1A cells infected with pMV7 retrovirus; microsomes
- test context: 100 μM; cell free assay; Table 5
endpoint label: HRED2 % Inhibition @ 100 μM (%)

| molecule | meas value |
| --- | --- |
| O=C(OC1Cc2c(O)cc(O)cc2OC1c1cc(O)c(O)c(O)c1)c1ccccc1 (centres unmarked) [HZIV 74] | 24 |
| CCCCCC(=O)OC1Cc2c(O)cc(O)cc2OC1c1cc(O)c(O)c(O)c1 (centres unmarked) [HZIV 169] | 39 |
| CCCCCCCCCCCCCCCCCC(=O)OC1Cc2c(O)cc(O)cc2OC1c1cc(O)c(O)c(O)c1 (centres unmarked) [HZIV 148] | 0 |
| CCCCC=CCCCCCCCC(=O)OC1Cc2c(O)cc(O)cc2OC1c1cc(O)c(O)c(O)c1 (centres unmarked) [HZIV 160] | 96 |
| O=C(OC1Cc2c(O)cc(O)cc2OC1c1cc(O)c(O)c(O)c1)C1CCCCC1 (centres unmarked) [HZIV 144] | 38 |
| Cc1c(O)cc(C(=O)OC2Cc3c(O)cc(O)cc3OC2c2cc(O)c(O)c(O)c2)cc1O (centres unmarked) [HZIV 68] | 51 |
| COc1cc(C(=O)OC2Cc3c(O)cc(O)cc3OC2c2cc(O)c(O)c(O)c2)cc(OC)c1OC (centres unmarked) [HZIV 63] | 20 |
| O=C(OC1Cc2c(O)cc(O)cc2OC1c1cc(O)c(O)c(O)c1)c1ccc2ccccc2c1 (centres unmarked) [HZIV 120] | 97 |

###

- system: type 1 human 5α-reductase (HRED1) (Homo sapiens, UniProt P18405)
- Sequence (P18405 whole entry): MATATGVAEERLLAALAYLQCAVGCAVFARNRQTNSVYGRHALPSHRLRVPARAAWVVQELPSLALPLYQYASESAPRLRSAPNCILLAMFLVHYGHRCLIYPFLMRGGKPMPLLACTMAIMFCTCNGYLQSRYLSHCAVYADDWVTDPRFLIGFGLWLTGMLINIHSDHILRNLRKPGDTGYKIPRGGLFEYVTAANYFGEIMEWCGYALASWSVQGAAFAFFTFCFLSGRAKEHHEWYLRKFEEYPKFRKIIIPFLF
- protocol: Cell free assay of 5α-reductase, microsomes of rat 1A cells expressing type 1 isoenzyme (HRED1);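 also: microsomes from rat 1A cells expressing human type 1 5α-reductase, conversion of radiolabeled testosterone to dihydrotestosterone quantified by thin layer chromatography with radioanalytic scanning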
- Format: biochemical
- Parameters: expressed in transfected cells; host or cells: rat 1A cells infected with pMV7 retrovirus; microsomes
- test context: 100 μM; cell free assay; Table 5

| compound | system | HRED1 % Inhibition @ 100 μM [%] |
| --- | --- | --- |
| O=C(OC1Cc2c(O)cc(O)cc2OC1c1cc(O)c(O)c(O)c1)c1ccccc1 (centres unmarked) [HZIV 74] | type 1 human 5α-reductase (HRED1) (Homo sapiens, UniProt P18405) | 85 |
| CCCCCCCCCCCCCCCCCC(=O)OC1Cc2c(O)cc(O)cc2OC1c1cc(O)c(O)c(O)c1 (centres unmarked) [HZIV 148] | type 1 human 5α-reductase (HRED1) (Homo sapiens, UniProt P18405) | 31 |
| CCCCCC=CCC=CCC=CCCCCC(=O)OC1Cc2c(O)cc(O)cc2OC1c1cc(O)c(O)c(O)c1 (centres unmarked) [HZIV 142] | type 1 human 5α-reductase (HRED1) (Homo sapiens, UniProt P18405) | 97 |
| O=C(OC1Cc2c(O)cc(O)cc2OC1c1cc(O)c(O)c(O)c1)C1CCCCC1 (centres unmarked) [HZIV 144] | type 1 human 5α-reductase (HRED1) (Homo sapiens, UniProt P18405) | 88 |
| CN(C)c1ccc(C(=O)OC2Cc3c(O)cc(O)cc3OC2c2cc(O)c(O)c(O)c2)cc1 (centres unmarked) [HZIV 92] | type 1 human 5α-reductase (HRED1) (Homo sapiens, UniProt P18405) | 98 |
| Cc1c(O)cc(C(=O)OC2Cc3c(O)cc(O)cc3OC2c2cc(O)c(O)c(O)c2)cc1O (centres unmarked) [HZIV 68] | type 1 human 5α-reductase (HRED1) (Homo sapiens, UniProt P18405) | 93 |
| O=C(O)OC1Cc2c(O)cc(O)cc2OC1c1cc(O)c(O)c(O)c1 (centres unmarked) [HZIV 109] | type 1 human 5α-reductase (HRED1) (Homo sapiens, UniProt P18405) | 17 |
| CCCCC=CCCCCCCCC(=O)OC1Cc2c(O)cc(O)cc2OC1c1cc(O)c(O)c(O)c1 (centres unmarked) [HZIV 160] | type 1 human 5α-reductase (HRED1) (Homo sapiens, UniProt P18405) | 99 |
